TEST SYSTEM: T1, recombinant human CD3 epsilon/delta heterodimer (human, UniProt P07766 23-126; P04234 22-105)
T1 construct: Recombinant protein in solution (200-50 nM) in the Octet assay; also called hCD3 E/D; human CD3E/D
T1 sequence (P07766 23-126, stated change not applied, chain 1 of 2): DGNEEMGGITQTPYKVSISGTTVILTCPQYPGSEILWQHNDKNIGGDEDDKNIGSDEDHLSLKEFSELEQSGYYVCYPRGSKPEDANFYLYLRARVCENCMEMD
T1 sequence (P04234 22-105, stated change not applied, chain 2 of 2): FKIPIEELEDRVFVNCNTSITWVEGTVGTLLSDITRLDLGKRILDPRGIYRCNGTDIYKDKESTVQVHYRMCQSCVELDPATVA
PROTOCOL DETAILS: Octet BLI, mAb on FAB2G sensor, hCD3 E/D 200-50 nM; R^2 1.00
QUANTITY: koff (s⁻¹)
Numeric answer only, unit s⁻¹ assumed.

# annotated cases, reported koff shown
May I ask what koff has been recorded for ABL-CD3-36 (antibody, V domains shown, Chimeric hybridoma mAb: human V, CH1, upper hinge; mouse middle hinge, CH2, CH3) VH: EVQLVESGGGLVQRGGSLRLSCAASGFTFSNYWMSWVRQAPGKGLEWVANIKEDGSEKYCVDSVKGRFTISRDNAKHSLYLQMNSLRAEDTAVYYCARERRTGYFDYWGQGTLVTVSS VL: DIQMTQSPSTLSASVGDRVTITCRASQSISSWLAWFQQKTGKAPKLLIYKASSLESGVPSRFSGSGSGTEFTLTISSLQPDDFATYYCQQYISYSWTFGQGTKVEIK ? 0.00101

Could you tell me which koff is on file for ABL-CD3-19 (antibody, V domains shown, Chimeric hybridoma mAb: human V, CH1, upper hinge; mouse middle hinge, CH2, CH3) VH: EVQLVESGGGLVKPGGSLRLSCAASGFTLSSYSMNWVRQAPGKGLEWVSSISRSSSYIYYADSVKGRFTISRDNAKNSLYLQMNSLRAEDTAVYYCARERWELLYFDYWGQGTLVTVSS VL: NFMLTQPHSVSESPGKTVTISCTRSSGSIASNYVQWYQQRPGSSPTTVIYEDNQRPSGVPDRFSGSIDSSSNSASLTISGLKTEDEADYYCQSFDNSNRVFGGGTKLTVL ? 0.00191

Further cases:
What value of measured koff is listed for ABL-CD3-58 (antibody, V domains shown, Chimeric hybridoma mAb: human V, CH1, upper hinge; mouse middle hinge, CH2, CH3) VH: EVQLVESGGGLVKPGGSLRLSCVVSGFTFSNYNMNWVRQAPGKGLEWVSSSSRSSYIYYADSVKGRFTISRDNAKNSLYLQMNSLRAEDTAIYYCAREKWELLFFDYWGQGTLVTVSS VL: NFMLTQPHSVSESPGKTVTISCTRSSGSIASNFVQWYQQRPGSSPTTVIYEDNQRPSGVPDRFSGSIDSSSNSASLTISGLKTEDEADYYCQSFDSSNRVFGGGTKLTVL ? 0.00265

Entry source: patent US20260167721A1
